- target.or.test.system: Phosphatidylinositol 4,5-bisphosphate 3-kinase catalytic subunit alpha isoform (Homo sapiens)
- assay.name: Inhibition of human recombinant PI3Kalpha assessed as production of 3,4,5-inositoltriphosphate after 3 hrs by fluorescence polarization assay
measured.parameter: IC50 (nM)
Respond numerically; units are nM and should not be typed.

O=S(=O)(c1ccc(Br)cc1)c1nc2ccccc2nc1Nc1cccc(O)c1 = 470

# context switch: different compound, same IC50
Record `COc1cc(Nc2nc3ccccc3nc2S(=O)(=O)c2ccccc2)cc(OC)c1` , field IC50: 70

* * *

Reported pIC50 values follow for various compounds
- target.or.test.system: Phosphatidylinositol 4,5-bisphosphate 3-kinase catalytic subunit alpha isoform (Homo sapiens, UniProt P42336)
- Sequence (P42336 whole entry, canonical isoform): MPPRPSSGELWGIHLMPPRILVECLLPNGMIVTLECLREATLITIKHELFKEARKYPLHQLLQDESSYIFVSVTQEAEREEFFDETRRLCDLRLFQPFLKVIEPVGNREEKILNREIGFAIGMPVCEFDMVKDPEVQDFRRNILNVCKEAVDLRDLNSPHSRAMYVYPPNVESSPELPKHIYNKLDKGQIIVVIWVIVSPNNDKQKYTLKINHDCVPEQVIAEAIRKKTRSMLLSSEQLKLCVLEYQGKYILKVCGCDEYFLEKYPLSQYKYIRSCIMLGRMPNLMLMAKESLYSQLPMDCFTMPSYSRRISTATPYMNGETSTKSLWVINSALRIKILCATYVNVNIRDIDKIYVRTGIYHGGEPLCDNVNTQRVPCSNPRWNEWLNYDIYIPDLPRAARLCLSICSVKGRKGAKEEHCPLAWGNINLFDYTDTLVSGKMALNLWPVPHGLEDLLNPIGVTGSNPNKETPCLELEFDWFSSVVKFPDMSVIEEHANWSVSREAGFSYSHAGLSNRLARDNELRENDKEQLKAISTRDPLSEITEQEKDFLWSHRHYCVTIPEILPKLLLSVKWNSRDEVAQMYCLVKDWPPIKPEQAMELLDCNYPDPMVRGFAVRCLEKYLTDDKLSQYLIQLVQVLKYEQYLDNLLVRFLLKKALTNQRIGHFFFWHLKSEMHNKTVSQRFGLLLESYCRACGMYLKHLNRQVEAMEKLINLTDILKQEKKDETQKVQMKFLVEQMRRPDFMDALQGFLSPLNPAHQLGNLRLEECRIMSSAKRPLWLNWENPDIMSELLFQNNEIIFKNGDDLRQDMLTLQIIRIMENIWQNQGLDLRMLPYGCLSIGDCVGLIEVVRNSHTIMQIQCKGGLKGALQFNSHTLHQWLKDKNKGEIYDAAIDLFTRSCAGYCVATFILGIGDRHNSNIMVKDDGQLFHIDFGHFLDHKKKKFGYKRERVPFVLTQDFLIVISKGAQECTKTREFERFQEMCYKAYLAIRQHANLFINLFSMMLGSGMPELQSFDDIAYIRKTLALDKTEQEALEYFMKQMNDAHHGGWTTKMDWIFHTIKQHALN
- assay.name: Inhibition of human recombinant PI3Kalpha assessed as production of 3,4,5-inositoltriphosphate after 3 hrs by fluorescence polarization assay
pIC50: −log10 of the molar value.

O=S(=O)(c1ccccc1)c1nc2ccccc2nc1Nc1cccc(O)c1 = < 6.00
Cc1ccc(S(=O)(=O)c2nc3ccccc3nc2Nc2cccc(O)c2)cc1 = < 6.00

# context switch: different compound, same pIC50
Record `COc1ccc(S(=O)(=O)c2nc3ccccc3nc2Nc2cccc(O)c2)cc1` , field pIC50: < 6.00

Measured values drawn from ChEMBL document CHEMBL1833862 for this set.
